Attribution: ChEMBL document CHEMBL1201862

tested on: UO-31; experiment: NCI tumour cell line growth inhibition, 48 h
Calls of active or inactive are those of the source. Cut-off read from the data, not from the text of the source: active = GI50 up to about 1.1 µM and inactive = higher.
GI50 values, listed per item

molecule=CCCN/C(N)=N/C#N study_system=UO-31 value="> 100 µM (inactive)"

Query: Please tell me: GI50 of CC(C)NCCNC(=O)c1ccccc1Nc1c(Cl)cccc1Cl , system UO-31?
Response: 10.1 µM (inactive)

Query: Please tell me: GI50 of COC(=O)CC(CC(=O)C(=O)OC)C(=O)OC (stereo unspecified) , system UO-31?
Response: > 100 µM (inactive)

Query: Please tell me: GI50 of NC(=O)CO/N=C1/C(=C2/C(=O)Nc3ccccc32)Nc2ccccc21 , system UO-31?
Response: 1.77 µM (inactive)

Query: Please tell me: GI50 of COC1C(CN[N+](=O)CC2OC3OC(C)(C)OC3C2OC)OC2OC(C)(C)OC21 (stereo unspecified) , system UO-31?
Response: > 100 µM (inactive)

Query: Please tell me: GI50 of COc1cccc(C=O)c1C(=O)c1cc(O)ccc1O , system UO-31?
Response: 18.5 µM (inactive)
